biological target: NPR-B (Mus musculus, UniProt Q6VVW5); construct: Murine NIH3T3 cells express endogenously the CNP signaling receptor, NPR-B; endogenous in cells; host or cells: NIH3T3 (murine fibroblasts); test: Stimulation of cGMP production in NIH3T3 cells; assay type: cell-based, Murine; details: NIH3T3 cells; 1 uM natriuretic peptide; normalized to cell number and cGMP production with 1 uM wtCNP22; read-out: cGMP Response rel. to 1 uM CNP22, 1 uM
Sequence (Q6VVW5 17-1047): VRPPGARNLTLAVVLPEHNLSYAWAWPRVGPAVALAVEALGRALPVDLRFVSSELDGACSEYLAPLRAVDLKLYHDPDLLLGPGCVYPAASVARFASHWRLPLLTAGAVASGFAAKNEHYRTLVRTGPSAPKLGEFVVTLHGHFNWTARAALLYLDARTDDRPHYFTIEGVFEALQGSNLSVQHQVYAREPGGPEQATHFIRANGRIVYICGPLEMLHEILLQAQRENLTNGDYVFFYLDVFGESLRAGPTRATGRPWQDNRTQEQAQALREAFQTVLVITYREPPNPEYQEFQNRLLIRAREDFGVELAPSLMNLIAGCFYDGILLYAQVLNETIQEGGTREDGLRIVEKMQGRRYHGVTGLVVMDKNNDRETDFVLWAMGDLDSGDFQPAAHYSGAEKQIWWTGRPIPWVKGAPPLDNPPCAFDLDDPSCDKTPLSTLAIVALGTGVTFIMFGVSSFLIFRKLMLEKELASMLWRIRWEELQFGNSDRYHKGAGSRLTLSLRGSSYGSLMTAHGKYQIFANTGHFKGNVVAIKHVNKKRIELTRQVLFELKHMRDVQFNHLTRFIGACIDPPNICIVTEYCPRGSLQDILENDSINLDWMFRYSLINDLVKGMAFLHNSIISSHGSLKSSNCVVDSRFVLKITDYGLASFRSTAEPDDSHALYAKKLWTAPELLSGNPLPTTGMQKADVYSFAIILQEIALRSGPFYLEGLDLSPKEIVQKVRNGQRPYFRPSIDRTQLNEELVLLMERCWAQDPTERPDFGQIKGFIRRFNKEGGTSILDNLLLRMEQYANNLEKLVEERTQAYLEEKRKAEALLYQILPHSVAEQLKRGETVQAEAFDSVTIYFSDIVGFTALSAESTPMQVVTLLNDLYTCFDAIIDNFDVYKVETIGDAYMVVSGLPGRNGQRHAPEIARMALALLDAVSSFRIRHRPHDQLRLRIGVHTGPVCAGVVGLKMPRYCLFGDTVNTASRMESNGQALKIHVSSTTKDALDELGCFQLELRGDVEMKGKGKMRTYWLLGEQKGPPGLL
Bridge positions count the residues as written; N and C are the ends. Peptide text beside a SMILES is read from it.
Experimental Readout: cGMP response relative to 1 uM CNP22 (%) at 1 µM
Give bare numbers, in %.

Q: Query: cGMP response relative to 1 uM CNP22 (%) at 1 µM; subject: CC[C@H](C)[C@@H]1NC(=O)[C@H](CCCNC(=N)N)NC(=O)[C@H](CC(=O)O)NC(=O)[C@H](CC(C)C)NC(=O)[C@H](CCCNC(=N)N)NC(=O)[C@H](CC(C)C)NC(=O)CNC(=O)[C@H](Cc2ccccc2)NC(=O)[C@@H](NC(=O)CNC(=O)[C@H](CCCNC(=N)N)NC(=O)[C@H](CO)NC(=O)[C@H](CC(C)C)NC(=O)CN)CSSC[C@@H](C(=O)O)NC(=O)CNC(=O)[C@H](CC(C)C)NC(=O)CNC(=O)[C@H](CO)NC(=O)[C@H](CCSC)NC(=O)[C@H](CO)NC(=O)CNC1=O [BH] (H-GLSRGCFGLRLDRIGSMSGLGC-OH; disulfide 6-22)
Ans: 80
